parameters: species or system nude BALB/c mice; conditions: mouse, in vivo, 5 MBq
Numbered stars: 1 amine (or outer) side, 2 acyl side, 3 side chain; on linkers, the order of the positions; unused ones are H or OH. Square brackets hold non-standard residues; d marks the D form. Side chains are listed from the residue outwards. Peptide text beside a SMILES is read from it. * marks the point of attachment. NOTA(2S-Bn(4-NHCS)) = O=C(O)CN1CCN(CC(=O)O)C[C@H](Cc2ccc(NC(=S)*)cc2)N(CC(=O)O)CC1; NH(2-(imidazol-4-yl)ethyl) = c1ncc(CCN*)[nH]1; Suc = O=C(CCC(=O)[*:2])[*:1]

Compound	tissue uptake (%ID/g)
C[C@@H](NC(=S)Nc1ccc(C[C@H]2CN(CC(=O)O)CCN(CC(=O)O)CCN2CC(=O)O)cc1)C(=O)N[C@H](CCCCNC(=O)CNC(=O)CCC(=O)NCCc1c[nH]cn1)C(=O)N[C@H](Cc1ccc(O)cc1)C(=O)N[C@H](CCCCNC(=O)CNC(=O)CCC(=O)NCCc1c[nH]cn1)C(N)=O [IMP-449] ({NOTA(2S-Bn(4-NHCS))}-[dA][dK]([Gly-Suc-NH(2-(imidazol-4-yl)ethyl)])[dY][dK]([Gly-Suc-NH(2-(imidazol-4-yl)ethyl)])-NH2; N-terminus and C-terminus assumed)	0.54
